The following compounds are listed with their measured Ki values.
target: Histamine H3 receptor (Homo sapiens, UniProt Q9Y5N1); assay: Displacement of [125I]iodoproxyfan from human histamine H3 receptor expressing CHO cells; type: cell-based
Sequence (Q9Y5N1 whole entry): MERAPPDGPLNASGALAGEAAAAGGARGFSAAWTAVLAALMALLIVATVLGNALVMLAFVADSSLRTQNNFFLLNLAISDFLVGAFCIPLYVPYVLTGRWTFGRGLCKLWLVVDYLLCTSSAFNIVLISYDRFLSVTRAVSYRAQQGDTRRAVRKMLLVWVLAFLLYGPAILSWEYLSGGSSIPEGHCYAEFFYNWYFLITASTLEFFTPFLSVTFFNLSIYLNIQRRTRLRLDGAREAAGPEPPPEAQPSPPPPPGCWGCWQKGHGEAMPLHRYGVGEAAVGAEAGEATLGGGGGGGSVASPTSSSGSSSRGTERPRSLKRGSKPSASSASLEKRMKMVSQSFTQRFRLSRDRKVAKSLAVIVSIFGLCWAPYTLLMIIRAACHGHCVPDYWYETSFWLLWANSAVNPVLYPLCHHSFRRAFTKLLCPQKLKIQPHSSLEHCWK
assay-metric: Ki (nM)

1) Fc1ccc(OCc2ccc(CN3CCCCC3)cc2)cc1; 123
2) c1ccc(NCc2ccc(OCc3ccc(CN4CCCCC4)cc3)cc2)cc1; 90
3) CC(=O)c1ccc(OCc2ccc(CN3CCCCC3)cc2)cc1; 84
4) O=C(c1ccc(OCc2ccc(CN3CCCCC3)cc2)cc1)C1CCCC1; 157
5) CC(=O)c1ccc(OCc2ccc(CN3CCCC3)cc2)cc1; 26
6) Cc1cccc(OCc2ccc(CN3CCCCC3)cc2)c1; 334

---

biological target: Histamine H3 receptor (Mus musculus) (UniProt P58406); assay: In vivo effects in mice against H3 receptor on N6-methylhistamine levels in brain (following oral dosing of compound); type: functional, organism-based
Sequence (P58406 whole entry): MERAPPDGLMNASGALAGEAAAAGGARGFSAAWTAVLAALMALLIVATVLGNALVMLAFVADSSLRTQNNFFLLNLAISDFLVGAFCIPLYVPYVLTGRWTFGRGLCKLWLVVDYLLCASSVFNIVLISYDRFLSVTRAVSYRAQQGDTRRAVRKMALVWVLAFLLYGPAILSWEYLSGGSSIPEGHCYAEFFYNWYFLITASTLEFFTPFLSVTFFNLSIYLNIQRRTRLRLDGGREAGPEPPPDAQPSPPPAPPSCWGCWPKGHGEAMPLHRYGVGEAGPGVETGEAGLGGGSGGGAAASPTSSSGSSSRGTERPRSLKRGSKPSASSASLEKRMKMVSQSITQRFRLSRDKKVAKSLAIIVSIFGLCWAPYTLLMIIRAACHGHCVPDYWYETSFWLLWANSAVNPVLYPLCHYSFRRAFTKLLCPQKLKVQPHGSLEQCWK
assay-metric: ED50 (mg/kg)

1. CCCc1ccc(OCc2ccc(CN3CCCCC3)cc2)cc1; 4.3
2. COc1ccc(OCc2ccc(CN3CCCCC3)cc2)cc1; 20
3. CC(=O)c1ccc(OCc2ccc(CN3CCCCCC3)cc2)cc1; 4.3
4. c1cc(CN2CCCCC2)ccc1COc1ccc(CN2CCCCC2)cc1; 9.6
5. c1cc(CN2CCCCC2)ccc1COc1ccc2c(c1)CCC2; 1.9

---

biological target: Histamine H3 receptor (Cavia porcellus, UniProt Q9JI35); assay: Potency at histamine H3 receptor subtype, was tested on guinea pig right ileum; format: tissue-based; details: read-out: pA2 (converted)
Sequence (Q9JI35 whole entry): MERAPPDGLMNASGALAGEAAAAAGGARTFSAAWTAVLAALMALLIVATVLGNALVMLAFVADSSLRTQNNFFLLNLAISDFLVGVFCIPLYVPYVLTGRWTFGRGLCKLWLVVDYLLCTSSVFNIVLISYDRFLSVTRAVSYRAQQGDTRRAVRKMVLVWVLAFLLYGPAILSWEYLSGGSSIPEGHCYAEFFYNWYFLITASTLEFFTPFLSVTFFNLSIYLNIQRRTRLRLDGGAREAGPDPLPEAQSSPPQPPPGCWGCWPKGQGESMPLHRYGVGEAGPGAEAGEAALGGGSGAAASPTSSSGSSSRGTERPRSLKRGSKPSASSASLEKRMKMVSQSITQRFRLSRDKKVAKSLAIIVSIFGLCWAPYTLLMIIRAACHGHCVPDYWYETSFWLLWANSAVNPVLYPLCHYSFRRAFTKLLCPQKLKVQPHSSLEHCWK
Labelling: Kb reported below 30 nM becomes Satisfied; at or above becomes Not satisfied.

1. c1cc(CN2CCCCC2)ccc1COc1ccc(CN2CCCCC2)cc1; Not satisfied
2. C/C(=N\O)c1ccc(OCc2ccc(CN3CCCCC3)cc2)cc1; Not satisfied
3. CO/N=C(\C)c1ccc(OCc2ccc(CN3CCCCC3)cc2)cc1; Not satisfied
4. CC(=O)c1ccc(OCc2ccc(CN3CCCC3)cc2)cc1; Satisfied
5. CC(=O)c1ccc(OCc2ccc(CN3CCCCC3)cc2)cc1; Not satisfied
6. c1cn(-c2ccc(OCc3ccc(CN4CCCCC4)cc3)cc2)cn1; Satisfied

---

The following compounds are listed with their measured pKi values.
target: Histamine H3 receptor (Homo sapiens, UniProt Q9Y5N1); assay: Displacement of [125I]iodoproxyfan from human histamine H3 receptor expressing CHO cells; assay type: cell-based
pKi: −log10 of the molar value.
assay-metric: pKi

1) CC(C)c1ccc(OCc2ccc(CN3CCCCC3)cc2)cc1; 6.60
2) Ic1ccc(OCc2ccc(CN3CCCCC3)cc2)cc1; 6.97
3) CCCOc1ccc(OCc2ccc(CN3CCCCC3)cc2)cc1; 7.06
4) CC(=O)c1ccc(OCc2ccc(CN3CCCCCC3)cc2)cc1; 7.43
5) C(=C\c1ccc(OCc2ccc(CN3CCCCC3)cc2)cc1)/c1ccccc1; 6.12
6) CCc1ccc(OCc2ccc(CN3CCCCC3)cc2)cc1; 6.79
7) c1cc(CN2CCCCC2)ccc1COc1ccc(CN2CCCCC2)cc1; 8.55
8) c1cc(CN2CCCCC2)ccc1COc1ccc2c(c1)CCCC2; 7.04
9) CC(=O)c1ccc(OCCCc2c[nH]cn2)cc1; 7.06
10) c1cn(-c2ccc(OCc3ccc(CN4CCCCC4)cc3)cc2)cn1; 7.57
11) c1ccc(Oc2ccc(OCc3ccc(CN4CCCCC4)cc3)cc2)cc1; 6.28
12) Clc1ccc(OCc2ccc(CN3CCCCC3)cc2)cc1; 6.91

---

The following compounds are listed with their measured ED50 values.
target: Histamine H3 receptor (Mus musculus) (UniProt P58406); experiment: In vivo effects in mice against H3 receptor on N6-methylhistamine levels in brain (following oral dosing of compound); format: functional, organism-based
assay-metric: ED50 (mg/kg)

1. CCN(CC)Cc1ccc(COc2ccc(C(C)=O)cc2)cc1; 3.4
2. c1ccc(OCc2ccc(CN3CCCCC3)cc2)cc1; 30
3. Cc1cccc(OCc2ccc(CN3CCCCC3)cc2)c1; 20
4. CC(=O)c1ccc(OCc2ccc(CN3CCCC3)cc2)cc1; 1.9
5. Cc1ccc(OCc2ccc(CN3CCCCC3)cc2)cc1C; 4.8
6. O=C(c1ccc(OCc2ccc(CN3CCCCC3)cc2)cc1)C1CCCC1; 2.8
7. c1cc(CN2CCCCC2)ccc1COc1ccc2c(c1)CCCC2; 3.5
8. CC(=O)c1ccc(OCc2ccc(CN3CCCCC3)cc2)cc1; 3.9

---

The following compounds are listed with their measured Kb values.
molecular target: Histamine H2 receptor (Cavia porcellus, UniProt P47747); test: Potency at histamine H2 receptor subtype, was tested on guinea pig right atrium; assay type: tissue-based, Cardiac atrium; settings: read-out: pA2 (converted)
Sequence (P47747 whole entry): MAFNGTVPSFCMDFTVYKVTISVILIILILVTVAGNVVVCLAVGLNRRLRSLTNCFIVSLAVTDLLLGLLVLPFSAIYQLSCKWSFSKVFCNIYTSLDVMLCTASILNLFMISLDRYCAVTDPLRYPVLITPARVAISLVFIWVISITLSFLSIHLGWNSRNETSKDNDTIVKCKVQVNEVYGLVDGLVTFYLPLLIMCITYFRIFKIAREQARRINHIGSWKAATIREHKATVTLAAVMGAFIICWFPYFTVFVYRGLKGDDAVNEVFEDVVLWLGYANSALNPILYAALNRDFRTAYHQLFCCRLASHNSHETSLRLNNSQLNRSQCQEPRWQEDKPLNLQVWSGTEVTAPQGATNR
assay-metric: Kb (µM)

1. CC(=O)c1ccc(OCc2ccc(CN3CCCC3)cc2)cc1; 7.76
2. CO/N=C(\C)c1ccc(OCc2ccc(CN3CCCCC3)cc2)cc1; 3.98
3. C/C(=N\O)c1ccc(OCc2ccc(CN3CCCCC3)cc2)cc1; 14.1
4. CC(=O)c1ccc(OCc2ccc(CN3CCCCC3)cc2)cc1; 10.2

---

target: UniProtKB Q9Y5N1; assay: biochemical
assay-metric: Ki (nM)

1. O=[N+]([O-])c1ccc(OCCCCCN2CCCC2)cc1; 39

---

molecular target: Histamine H3 receptor (Mus musculus) (UniProt P58406); assay: In vivo effects in mice against H3 receptor on N6-methylhistamine levels in brain (following oral dosing of compound); type: functional, organism-based
assay-metric: ED50

1. C/C(=N\O)c1ccc(OCc2ccc(CN3CCCCC3)cc2)cc1; 5 mg/kg
2. Cc1ccc(OCc2ccc(CN3CCCCC3)cc2)cc1; 1.8 mg/kg
3. c1ccc(NCc2ccc(OCc3ccc(CN4CCCCC4)cc3)cc2)cc1; 10 mg/kg
4. c1cn(-c2ccc(OCc3ccc(CN4CCCCC4)cc3)cc2)cn1; 4 mg/kg
5. CC(=O)c1ccc(OCCCc2c[nH]cn2)cc1; 0.24 mg/kg
6. Clc1ccc(OCc2ccc(CN3CCCCC3)cc2)cc1Cl; > 10 mg/kg
7. c1ccc(CCc2ccc(OCc3ccc(CN4CCCCC4)cc3)cc2)cc1; 30 mg/kg
8. Cc1cc(OCc2ccc(CN3CCCCC3)cc2)ccc1Cl; > 10 mg/kg
9. c1ccc(Cc2ccc(OCc3ccc(CN4CCCCC4)cc3)cc2)cc1; > 10 mg/kg
10. CCCOc1ccc(OCc2ccc(CN3CCCCC3)cc2)cc1; 10 mg/kg
11. c1cc(CN2CCCCC2)ccc1COc1ccc(C2CCCC2)cc1; 3.1 mg/kg
12. CO/N=C(\C)c1ccc(OCc2ccc(CN3CCCCC3)cc2)cc1; 6.4 mg/kg

---

target: Histamine H3 receptor (Homo sapiens); experiment: Displacement of [125I]iodoproxyfan from human histamine H3 receptor expressing CHO cells; format: cell-based
Labelling: Ki reported below 200 nM becomes 1.0; at or above becomes 0.0.

1) CO/N=C(\C)c1ccc(OCc2ccc(CN3CCCCC3)cc2)cc1; 1.0
2) c1ccc(COc2ccc(OCc3ccc(CN4CCCCC4)cc3)cc2)cc1; 0.0
3) O=C(c1ccc(OCc2ccc(CN3CCCCC3)cc2)cc1)C1CC1; 1.0
4) C/C(=N\O)c1ccc(OCc2ccc(CN3CCCCC3)cc2)cc1; 1.0
5) c1ccc(OCc2ccc(CN3CCCCC3)cc2)cc1; 0.0
6) FC(F)(F)c1ccc(OCc2ccc(CN3CCCCC3)cc2)cc1; 1.0
7) c1cc(CN2CCCCC2)ccc1COc1ccc2c(c1)CCC2; 1.0
8) c1ccc(CCc2ccc(OCc3ccc(CN4CCCCC4)cc3)cc2)cc1; 0.0
9) CCN(CC)Cc1ccc(COc2ccc(C(C)=O)cc2)cc1; 1.0
10) CCCc1ccc(OCc2ccc(CN3CCCCC3)cc2)cc1; 0.0

---

The following compounds are listed with their measured ED50 values.
target: UniProt P58406; test: In vivo effects in mice against H3 receptor on N6-methylhistamine levels in brain (following oral dosing of compound); assay type: functional, organism-based
assay-metric: ED50

1) C(=C\c1ccc(OCc2ccc(CN3CCCCC3)cc2)cc1)/c1ccccc1; > 10 mg/kg
2) Ic1ccc(OCc2ccc(CN3CCCCC3)cc2)cc1; > 10 mg/kg
3) Clc1ccc(OCc2ccc(CN3CCCCC3)cc2)cc1; > 10 mg/kg
4) c1ccc(COc2ccc(OCc3ccc(CN4CCCCC4)cc3)cc2)cc1; > 30 mg/kg

Measured values drawn from ChEMBL document CHEMBL1136767 for this set.
